assay: Intravitreal pharmacokinetic study of vorolanib insert (Example 5A); assay type: in vivo, Male Dutch Belted Rabbits; settings: male, Dutch Belted, rabbit, vitreous humor, topical or ocular, 630 ug, through day 180
value kind: Tmax (days)
Numeric only. Scale: days

Could you share which Tmax value was measured for Cc1[nH]c(/C=C2\C(=O)Nc3ccc(F)cc32)c(C)c1C(=O)N[C@H]1CCN(C(=O)N(C)C)C1 ?
14

* * *

assay: Intravitreal pharmacokinetic study of vorolanib insert (Example 5A); assay type: in vivo, Male Dutch Belted Rabbits; settings: male, Dutch Belted, rabbit, vitreous humor, topical or ocular, 630 ug, through day 180
value kind: Cmax (ng/mL)
// return numeric value only (unit: ng/mL, not printed)

Could you share which Cmax value was measured for Cc1[nH]c(/C=C2\C(=O)Nc3ccc(F)cc32)c(C)c1C(=O)N[C@H]1CCN(C(=O)N(C)C)C1 ?
232

* * *

test: Solubility of vorolanib in water; type: physicochemical
value kind: solubility

Requested read-out: solubility. Entry: Cc1[nH]c(/C=C2\C(=O)Nc3ccc(F)cc32)c(C)c1C(=O)N[C@H]1CCN(C(=O)N(C)C)C1
< 10 µg/mL
